experimental.system: recombinant human TDP2 (Homo sapiens, UniProt O95551)
Sequence (O95551 whole entry): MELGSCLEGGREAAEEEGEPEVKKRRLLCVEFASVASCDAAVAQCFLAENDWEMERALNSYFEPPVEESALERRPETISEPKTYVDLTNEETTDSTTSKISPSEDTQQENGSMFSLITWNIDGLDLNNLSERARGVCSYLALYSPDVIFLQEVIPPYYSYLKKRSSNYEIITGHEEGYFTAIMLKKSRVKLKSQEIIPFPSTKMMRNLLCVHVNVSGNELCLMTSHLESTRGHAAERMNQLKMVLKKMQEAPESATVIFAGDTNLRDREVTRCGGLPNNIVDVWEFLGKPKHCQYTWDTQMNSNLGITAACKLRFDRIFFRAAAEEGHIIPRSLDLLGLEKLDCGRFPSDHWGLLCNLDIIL
method.notes: Gel-based TDP2 activity assay (removal of 5'-tyrosine from oligonucleotide, PAGE)
Format: biochemical
Design: key: TDP2 active (+); -: inactive (−)
experimental.conditions: c 200 µM (Table S3 head)
attribute.measured: Tdp2 activity, c 200 µM

molecule="C[C@H](CCC(=O)O/N=C(\\N)c1ccc(Br)cc1)[C@H]1CC[C@H]2[C@@H]3CC[C@@H]4C[C@H](OCc5ccccc5)CC[C@]4(C)[C@H]3C[C@H](OCc3ccccc3)[C@]12C [Compound 14]" attribute_measured="Tdp2 activity, c 200 µM" value=+
molecule="C[C@H](CCC(=O)O)[C@H]1CC[C@H]2[C@@H]3CC[C@@H]4C[C@H](OCc5ccccc5)CC[C@]4(C)[C@H]3CC(=O)[C@]12C [Compound 3]" attribute_measured="Tdp2 activity, c 200 µM" value=+
molecule="C[C@H](CCC(=O)NN)[C@H]1CC[C@H]2[C@@H]3CC[C@@H]4C[C@H](OCc5ccccc5)CC[C@]4(C)[C@H]3C[C@H](OCc3ccccc3)[C@]12C [Compound 17]" attribute_measured="Tdp2 activity, c 200 µM" value=+

###

experimental.system: recombinant human TDP2 (Homo sapiens)
method.notes: Gel-based TDP2 activity assay (removal of 5'-tyrosine from oligonucleotide, PAGE)
Type: biochemical
Parameters: key: TDP2 active (+); -: inactive (−)
experimental.conditions: c 200 µM (Table S3 head)
attribute.measured: Tdp2 activity, c 200 µM

compound="C[C@H](CCc1nc(Cc2ccc(Br)cc2)no1)[C@H]1CC[C@H]2[C@@H]3CC[C@@H]4C[C@H](OCc5ccccc5)CC[C@]4(C)[C@H]3C[C@H](OCc3ccccc3)[C@]12C [Compound 13]" attribute_measured="Tdp2 activity, c 200 µM" value=-
compound="C[C@H](CCC(=O)Nc1ccc(Br)cc1)[C@H]1CC[C@H]2[C@@H]3CC[C@@H]4C[C@H](OCc5ccccc5)CC[C@]4(C)[C@H]3C[C@H](OCc3ccccc3)[C@]12C [Compound 7]" attribute_measured="Tdp2 activity, c 200 µM" value=+
compound="COC(=O)CC[C@@H](C)[C@H]1CC[C@H]2[C@@H]3CC[C@@H]4C[C@H](OCc5ccccc5)CC[C@]4(C)[C@H]3C[C@H](OCc3ccccc3)[C@]12C [Compound 16]" attribute_measured="Tdp2 activity, c 200 µM" value=-
compound="C[C@H](CCC(=O)NCCc1c[nH]c2ccccc12)[C@H]1CC[C@H]2[C@@H]3CC[C@@H]4C[C@H](OCc5ccccc5)CC[C@]4(C)[C@H]3C[C@H](OCc3ccccc3)[C@]12C [Compound 4]" attribute_measured="Tdp2 activity, c 200 µM" value=+

###

melting point values by entry
attribute.measured: melting point

smiles_record=C[C@H](CCC(=O)N/N=C/c1ccc(Br)cc1)[C@H]1CC[C@H]2[C@@H]3CC[C@@H]4C[C@H](OCc5ccccc5)CC[C@]4(C)[C@H]3C[C@H](OCc3ccccc3)[C@]12C attribute_measured="melting point" value="147.7 to 150 °C"
smiles_record=C[C@H](CCC(=O)NN)[C@H]1CC[C@H]2[C@@H]3CC[C@@H]4C[C@H](OCc5ccccc5)CC[C@]4(C)[C@H]3C[C@H](OCc3ccccc3)[C@]12C attribute_measured="melting point" value="179 to 180 °C"
smiles_record=COC(=O)CC[C@@H](C)[C@H]1CC[C@H]2[C@@H]3CC[C@@H]4C[C@H](OCc5ccccc5)CC[C@]4(C)[C@H]3C[C@H](OCc3ccccc3)[C@]12C attribute_measured="melting point" value="93.3 to 93.7 °C"
smiles_record=C[C@H](CCC(=O)O)[C@H]1CC[C@H]2[C@@H]3CC[C@@H]4C[C@H](OCc5ccccc5)CC[C@]4(C)[C@H]3C[C@H](O)[C@]12C attribute_measured="melting point" value="86 °C (dec.)"
smiles_record=C[C@H](CCC(=O)Nc1ccc(Br)cc1)[C@H]1CC[C@H]2[C@@H]3CC[C@@H]4C[C@H](OCc5ccccc5)CC[C@]4(C)[C@H]3C[C@H](OCc3ccccc3)[C@]12C attribute_measured="melting point" value="186.2 to 191.3 °C"
